Assayed System: EGFR del19/T790M/C797S (Homo sapiens, UniProt P00533, C797S/DEL746-750/T790M)
Sequence (P00533 with tags, fused parts or gaps DEL746-750/T790M/C797S): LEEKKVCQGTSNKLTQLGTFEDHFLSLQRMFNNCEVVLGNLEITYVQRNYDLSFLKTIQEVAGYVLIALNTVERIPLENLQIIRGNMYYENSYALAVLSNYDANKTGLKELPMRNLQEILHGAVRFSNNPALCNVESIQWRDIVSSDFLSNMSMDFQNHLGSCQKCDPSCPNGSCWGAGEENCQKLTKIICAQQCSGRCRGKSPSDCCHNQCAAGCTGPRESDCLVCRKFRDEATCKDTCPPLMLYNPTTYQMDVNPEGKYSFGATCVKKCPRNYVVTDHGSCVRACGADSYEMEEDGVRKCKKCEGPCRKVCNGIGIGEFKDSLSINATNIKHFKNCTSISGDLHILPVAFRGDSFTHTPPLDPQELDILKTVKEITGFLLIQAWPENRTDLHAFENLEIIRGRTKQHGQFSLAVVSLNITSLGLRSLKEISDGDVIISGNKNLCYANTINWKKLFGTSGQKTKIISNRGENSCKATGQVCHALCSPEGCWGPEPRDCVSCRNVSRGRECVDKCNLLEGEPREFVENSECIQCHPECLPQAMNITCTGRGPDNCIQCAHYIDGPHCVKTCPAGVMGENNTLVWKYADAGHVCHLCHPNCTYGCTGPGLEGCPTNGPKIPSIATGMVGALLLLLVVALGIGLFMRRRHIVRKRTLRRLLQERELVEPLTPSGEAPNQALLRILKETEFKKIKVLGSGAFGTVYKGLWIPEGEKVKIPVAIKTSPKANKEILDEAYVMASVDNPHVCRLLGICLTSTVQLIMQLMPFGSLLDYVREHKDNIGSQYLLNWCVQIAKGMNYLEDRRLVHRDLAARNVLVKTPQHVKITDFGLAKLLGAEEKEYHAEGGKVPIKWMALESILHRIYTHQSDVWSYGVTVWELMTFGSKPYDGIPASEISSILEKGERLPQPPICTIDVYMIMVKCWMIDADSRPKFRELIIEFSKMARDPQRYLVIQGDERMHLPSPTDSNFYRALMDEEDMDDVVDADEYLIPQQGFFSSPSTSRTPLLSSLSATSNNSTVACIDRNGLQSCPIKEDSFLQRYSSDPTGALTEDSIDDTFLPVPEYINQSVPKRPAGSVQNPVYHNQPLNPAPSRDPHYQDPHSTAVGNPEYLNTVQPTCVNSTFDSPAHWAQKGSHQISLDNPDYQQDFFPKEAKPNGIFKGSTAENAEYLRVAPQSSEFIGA
Experimental Protocol: Biochemical EGFR kinase assay (Lance Ultra TR-FRET), triple mutant del19/T790M/C797S
Condition Description: Km ATP; read-out: IC50 del19/T790M/C797S (nM) Km ATP
Property Label: log10 IC50 (log10 of the value in nM)
The common logarithm of IC50 in nM is what is listed.

{"columns": ["Molecule", "log10 IC50"],
 "data": [
  ["CN(C)CCCn1ccc(-c2cnc(Nc3ccnc(-c4cnn(S(=O)(=O)C5CC5)c4)n3)cc2N[C@H]2CC[C@@H](C(C)(C)O)CC2)n1 [Example 278]", -0.22]
]}

[Q] Entry O=S(=O)(C1CC1)n1cc(-c2nccc(Nc3cc(N[C@H]4CC[C@@H](NCCF)CC4)c(-c4csc(N5CCOCC5)n4)cn3)n2)cn1 [Example 126] has what log10 IC50?
[A] -0.15

[Q] Can you handle CN[C@H]1CC[C@@H](Nc2cc(Nc3ccnc(-c4cnn(S(=O)(=O)C5CC5)c4)n3)ncc2-c2ccn(C)n2)CC1 [Example 88] next?
[A] -0.70

[Q] Proceed to Cn1cc(-c2cnc(Nc3ccnc(-c4cnn(S(=O)(=O)C5CC5)c4)n3)cc2C#CC(C)(C)O)cn1 [Example 4]
[A] 0.51

The measured values listed here are drawn from patent US12258327B2.
